Test system: HCC1143
protocol_text: normalised response (% of control), CellTox Green; higher = less cell death (100 = DMSO, 0 = benzethonium chloride kill control)
assay_setup: incubation time: 72 h
observation_type: normalised response (%)

- COc1cc2c(Oc3ccc4[nH]c(C)cc4c3F)ncnc2cc1OCCCN1CCCC1 [Cediranib] (10 nM): 101
- C[C@H]1C[C@@H]2[C@H]([C@@H](O)C[C@@]3(C)[C@H]2CC[C@]3(O)C(=O)CO)[C@@]2(C)C=CC(=O)C=C12 [Methylprednisolone] (10000 nM): 121
- CNC(=O)c1cc(Oc2ccc(NC(=O)Nc3cc(C(C)(C)C)nn3-c3ccc4ncccc4c3)c(F)c2)ccn1 [Rebastinib] (1000 nM): 115
- CCCCC(=O)OCC(=O)[C@]1(O)Cc2c(O)c3c(c(O)c2[C@@H](O[C@H]2C[C@H](NC(=O)C(F)(F)F)[C@H](O)[C@H](C)O2)C1)C(=O)c1c(OC)cccc1C3=O [Valrubicin] (5000 nM): 176
- Cc1ccc(-c2cc(C(F)(F)F)nn2-c2ccc(S(N)(=O)=O)cc2)cc1 [Celecoxib] (1000 nM): 104
- N#Cc1ccc(C(c2ccc(C#N)cc2)n2cncn2)cc1 [Letrozole] (1000 nM): 101
- O=C(/C=C/c1cccnc1)NCCCCC1CCN(C(=O)c2ccccc2)CC1 [Daporinad] (100 nM): 104
- C=CCc1cccc(/C=N/NC(=O)CN2CCN(Cc3ccccc3)CC2)c1O [PAC-1] (1000 nM): 119
- CC1=C(/C=C/C(C)=C/C=C/C(C)=C/C(=O)O)C(C)(C)CCC1 [Tretinoin] (1000 nM): 115
- CC[C@H](C)C(=O)O[C@H]1C[C@H](O)C=C2C=C[C@H](C)[C@H](CC[C@@H](O)C[C@@H](O)CC(=O)O)[C@H]21 [Pravastatin] (1000 nM): 59
- O=C(O)C1(C(=O)O)CCC1.[NH2-].[NH2-].[Pt+2] [Carboplatin] (1000 nM): 101
- COc1cc2nccc(Oc3ccc(NC(=O)Nc4cc(C)on4)c(Cl)c3)c2cc1OC [Tivozanib] (100 nM): 89
- C=CCc1cccc(/C=N/NC(=O)CN2CCN(Cc3ccccc3)CC2)c1O [PAC-1] (10000 nM): 101
- C=CC(=O)N1CCC[C@@H](n2nc(-c3ccc(Oc4ccccc4)cc3)c3c(N)ncnc32)C1 [Ibrutinib] (1000 nM): 111
- Nc1ccccc1NC(=O)c1ccc(CNC(=O)OCc2cccnc2)cc1 [Entinostat] (10000 nM): 104

* * *

Test system: MDA-MB-436
protocol_text: drug sensitivity score (DSS), CellTiter-Blue viability (DSS (AUC-based score)); higher = stronger viability inhibition; extreme values may be limits of the assay
assay_setup: incubation time: 72 h
Decision: drug sensitivity score compared against 3; not below it gives yes (1), below it gives no (0).

* C[C@H]1C[C@@H]2[C@H]([C@@H](O)C[C@@]3(C)[C@H]2CC[C@]3(O)C(=O)CO)[C@@]2(C)C=CC(=O)C=C12 | no (0)
* Oc1ncc(N(CCCl)CCCl)c(O)n1 | no (0)
* COc1cc2nccc(Oc3ccc(NC(=O)Nc4cc(C)on4)c(Cl)c3)c2cc1OC | no (0)
* Cc1cnc(NC(=O)Nc2cc(Br)c(C)cc2OC[C@@H]2CNCCO2)cn1 | yes (1)
* CCCCC(=O)OCC(=O)[C@]1(O)Cc2c(O)c3c(c(O)c2[C@@H](O[C@H]2C[C@H](NC(=O)C(F)(F)F)[C@H](O)[C@H](C)O2)C1)C(=O)c1c(OC)cccc1C3=O | yes (1)
* C=CC(=O)N1CCC[C@@H](n2nc(-c3ccc(Oc4ccccc4)cc3)c3c(N)ncnc32)C1 | no (0)
* Nc1nc2[nH]cc(CCc3ccc(C(=O)N[C@@H](CCC(=O)O)C(=O)O)cc3)c2c(=O)[nH]1 | no (0)
* CC[C@@H]1C(=O)N(C)c2cnc(Nc3ccc(C(=O)NC4CCN(C)CC4)cc3OC)nc2N1C1CCCC1 | yes (1)
* Cc1ccc(-c2cc(C(F)(F)F)nn2-c2ccc(S(N)(=O)=O)cc2)cc1 | yes (1)
* COc1cc2c(Oc3ccc4[nH]c(C)cc4c3F)ncnc2cc1OCCCN1CCCC1 | no (0)

* * *

Tested on: MDA-MB-468
assay_setup: 72 h
Label criterion met when EC50, CellTiter-Glo is strictly below 0.07 µM; at or above that, label criterion not met.

* O=C(/C=C/c1cccnc1)NCCCCC1CCN(C(=O)c2ccccc2)CC1 | criterion met
* CCc1cncnc1N1CCN(Cc2nc3ccc(C(F)(F)F)cc3[nH]2)CC1 | criterion not met
* O=C(Cc1ccc(-c2ccc(OCCN3CCOCC3)cc2)cn1)NCc1ccccc1 | criterion met
* C=CC(=O)Nc1cc2c(Nc3ccc(F)c(Cl)c3)ncnc2cc1OCCCN1CCOCC1 | criterion not met
* Nc1ccccc1NC(=O)c1ccc(CNC(=O)OCc2cccnc2)cc1 | criterion not met
* COc1cc2c(NC3CCN(C(C)C)CC3)nc(C3CCCCC3)nc2cc1OCCCN1CCCC1 | criterion not met
* CC[C@@H]1C(=O)N(C)c2cnc(Nc3ccc(C(=O)NC4CCN(C)CC4)cc3OC)nc2N1C1CCCC1 | criterion met
* Nc1ncn([C@H]2C[C@H](O)[C@@H](CO)O2)c(=O)n1 | criterion met
* CCCCC(=O)OCC(=O)[C@]1(O)Cc2c(O)c3c(c(O)c2[C@@H](O[C@H]2C[C@H](NC(=O)C(F)(F)F)[C@H](O)[C@H](C)O2)C1)C(=O)c1c(OC)cccc1C3=O | criterion not met

* * *

normalised viability values, listed per item
System: HCC1143
protocol_text: normalised viability (% of control), CellTiter-Blue; higher = more viable cells (about 100 = DMSO control)
assay_setup: 1000 nM; incubation time: 72 h
observation_type: normalised viability (%)

- CC1=C(/C=C/C(C)=C/C=C/C(C)=C/C(=O)O)C(C)(C)CCC1 [Tretinoin]: 89.3
- CC[C@H](Nc1ncnc2[nH]cnc12)c1nc2cccc(F)c2c(=O)n1-c1ccccc1 [CAL-101]: 96.1
- C=CC(=O)N1CCC[C@@H](n2nc(-c3ccc(Oc4ccccc4)cc3)c3c(N)ncnc32)C1: 81.8
- CCN(CC)CCCC(C)Nc1c2ccc(Cl)cc2nc2ccc(OC)cc12 (stereo not drawn) [Mepacrine]: 96.1
- NCCCNCCSP(=O)(O)O [Amifostine]: 84
- CCc1cncnc1N1CCN(Cc2nc3ccc(C(F)(F)F)cc3[nH]2)CC1: 106
- O=C(O)C(=O)O.[NH-][C@@H]1CCCC[C@H]1[NH-].[Pt+2] [Oxaliplatin]: 94.2
- Nc1ccccc1NC(=O)c1ccc(CNC(=O)OCc2cccnc2)cc1 [Entinostat]: 89.6

* * *

normalised viability values, listed per item
Tested on: MDA-MB-231
protocol_text: normalised viability (% of control), CellTiter-Blue; higher = more viable cells (100 = DMSO, 0 = benzethonium chloride kill control)
assay_setup: 1 nM; incubation time: 72 h
observation_type: normalised viability (%)

- CC[C@H](Nc1ncnc2[nH]cnc12)c1nc2cccc(F)c2c(=O)n1-c1ccccc1: 82.3
- Nc1ccccc1NC(=O)c1ccc(CNC(=O)OCc2cccnc2)cc1: 102
- CCN(CC)CCCC(C)Nc1c2ccc(Cl)cc2nc2ccc(OC)cc12 (centres undefined): 101
- Nc1nc(F)nc2c1ncn2[C@@H]1O[C@H](CO)[C@@H](O)[C@@H]1O: 89.1

* * *

normalised response values, listed per item
Tested on: HDQ-P1
protocol_text: normalised response (% of control), CellTiter-Glo; higher = more viable cells (100 = DMSO, 0 = benzethonium chloride kill control)
assay_setup: incubation time: 72 h
observation_type: normalised response (%)

* COc1cc([C@@H]2c3cc4c(cc3[C@@H](O[C@@H]3O[C@@H]5CO[C@@H](c6cccs6)O[C@H]5[C@H](O)[C@H]3O)[C@H]3COC(=O)[C@H]23)OCO4)cc(OC)c1O [Teniposide] (100 nM) | 96.4
* C=CC(=O)Nc1cc2c(Nc3ccc(F)c(Cl)c3)ncnc2cc1OCCCN1CCOCC1 [Canertinib] (100 nM) | 70.9
* O=C(O)CCCCC(CCSCc1ccccc1)SCc1ccccc1 (stereo unspecified) [CPI-613] (100 nM) | 99
* CCCS(=O)(=O)Nc1ccc(F)c(C(=O)c2c[nH]c3ncc(-c4ccc(Cl)cc4)cc23)c1F [Vemurafenib] (100 nM) | 94.3
* Cc1ccc(-c2cc(C(F)(F)F)nn2-c2ccc(S(N)(=O)=O)cc2)cc1 [Celecoxib] (100 nM) | 94.7
* CCc1cncnc1N1CCN(Cc2nc3ccc(C(F)(F)F)cc3[nH]2)CC1 (100 nM) | 97.7

* * *

Tested on: MDA-MB-453
protocol_text: normalised viability (% of control), CellTiter-Blue; higher = more viable cells (about 100 = DMSO control)
assay_setup: 1000 nM; incubation time: 72 h
normalised viability values, listed per item
observation_type: normalised viability

* COc1cc2c(Oc3ccc4[nH]c(C)cc4c3F)ncnc2cc1OCCCN1CCCC1 | 77.9%
* C=CC(=O)N1CCC[C@@H](n2nc(-c3ccc(Oc4ccccc4)cc3)c3c(N)ncnc32)C1 | 26.5%
* CC[C@@H]1C(=O)N(C)c2cnc(Nc3ccc(C(=O)NC4CCN(C)CC4)cc3OC)nc2N1C1CCCC1 | 25.2%
* Cc1cnc(NC(=O)Nc2cc(Br)c(C)cc2OC[C@@H]2CNCCO2)cn1 | 65.2%

Attribution: the supplement of paper PMC4862054
